System: D1 receptor (Homo sapiens)
Construct: expressed in transfected cells; host or cells: D1 transfected CHO cell line
Sequence (P21728 whole entry): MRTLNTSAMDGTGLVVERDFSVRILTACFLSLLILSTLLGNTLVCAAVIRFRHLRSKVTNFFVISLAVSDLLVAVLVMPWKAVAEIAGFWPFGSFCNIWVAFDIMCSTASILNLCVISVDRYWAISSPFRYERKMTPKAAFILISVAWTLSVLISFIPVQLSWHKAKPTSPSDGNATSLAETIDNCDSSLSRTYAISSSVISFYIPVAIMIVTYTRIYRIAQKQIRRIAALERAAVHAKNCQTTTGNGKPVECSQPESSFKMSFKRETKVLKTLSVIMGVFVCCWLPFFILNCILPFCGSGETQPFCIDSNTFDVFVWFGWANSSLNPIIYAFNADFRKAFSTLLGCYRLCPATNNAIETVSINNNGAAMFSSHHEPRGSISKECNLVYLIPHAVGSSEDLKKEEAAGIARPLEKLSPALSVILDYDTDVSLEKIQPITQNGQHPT
Protocol Details: D1 Activation Adenylyl Cyclase Assay (cAMP FlashPlate, D1 transfected CHO cell line)
Format: cell-based
Cond: agonist activity at the D1 receptor, adenylate cyclase assay, D1 transfected CHO cell line; read-out: D1 EC50
Counter-ions that a name gives are not always drawn.
Attribute Measured: EC50 (nM)

INSERT INTO results (compound, readout_number) VALUES
  ('CNC[C@@H]1O[C@H](C2CCN(C)CC2)Cc2c1ccc(C)c2O [Example 102, dihydrobromide]', 1500),
  ('CNC[C@@H]1O[C@H](C2CCN(Cc3ccc(-c4ccccc4)cc3)CC2)Cc2c1ccc(C)c2O [Example 98, dihydrochloride]', 15),
  ('Cc1ccc2c(c1O)C[C@@H](C1CCN(CCC(C)NC(=O)c3cccs3)CC1)O[C@H]2CN (some centres unmarked) [Example 25, dihydrochloride]', 54),
  ('Cc1ccc2c(c1O)C[C@@H](C1CCN(CCC(C)NC(=O)c3ccc(Cl)cc3)CC1)O[C@H]2CN (some centres unmarked) [Example 13, dihydrochloride]', 30),
  ('CNC[C@@H]1O[C@H](C2CCN(Cc3ccc(C(F)(F)F)cc3)CC2)Cc2c1ccc(C)c2O [Example 181, hydrochloride]', 220),
  ('Cc1ccc2c(c1O)C[C@@H](C1CCN(C(=O)Nc3cccc(O)c3)CC1)O[C@H]2CN', 1.7),
  ('Cc1ccc2c(c1O)C[C@@H](C1CCN(CCCc3ccccc3)CC1)O[C@H]2CN [Example 110, dihydrochloride]', 6),
  ('Cc1ccc2c(c1O)C[C@@H](C1CCN(Cc3cccc4ccccc34)CC1)O[C@H]2CN [Example 39, dihydrochloride]', 750);

A: Cc1ccc2c(c1O)C[C@@H](C1CCN(Cc3cn(Cc4ccccc4)c4ccccc34)CC1)O[C@H]2CN [Example 91, dihydrochloride]
B: Cc1ccc2c(c1O)C[C@@H](C1CCN(Cc3c[nH]c4ccccc34)CC1)O[C@H]2CN [Example 89, dihydrochloride]
Q: Lower value for measured EC50? Options: A , B Selection: enter the item's label.
Ans: B

A: Cc1ccc2c(c1O)C[C@@H](C1CCN(Cc3cccc(F)c3)CC1)O[C@H]2CN [Example 69, dihydrochloride]
B: Cc1ccc2c(c1O)C[C@@H](C1CCN(Cc3ccc(-c4ccccc4)cc3)CC1)O[C@H]2CN [Example 49, dihydrochloride]
Q: Which has the smaller recorded EC50, A or B ? Bench note: the answer is the label of the chosen record.
Ans: A

1: CCNC[C@@H]1O[C@H](C2CCN(CC(=O)c3ccccc3)CC2)Cc2c1ccc(C)c2O
2: Cc1ccc2c(c1O)C[C@@H](C1CCN(Cc3cc4ccccc4o3)CC1)O[C@H]2CN [Example 85, dihydrochloride]
Q: Larger number for EC50: 1 , or 2 ? Select an item and report its label.
Ans: 1

* * *

System: human dopamine D1 receptor (Homo sapiens, UniProt P21728)
Construct: A 1.4 Kb Hind III to Xho I fragment was subcloned into the vector pMMLV; expressed in transfected cells; host or cells: CHO cells, clone CHO-D1M#9 (plasmid pHD1MMLV), membranes
Sequence (P21728 whole entry, the tested form may be a part): as the sequence (P21728 whole entry) above
Protocol Details: [3H]-SCH-23390 binding to cloned human dopamine D1 receptors (CHO cell membranes)
Cond: competitive binding, [3H]-SCH-23390, cloned human D1 in CHO membranes; read-out: D1 affinity Ki
Structures can show the parent of a compound that is named as a salt.
Attribute Measured: Ki (nM)

In the examples that follow, each entry is paired with its recorded Ki.
INSERT INTO measurements (molecule, system, attribute_measured, readout_number) VALUES
  ('Cc1ccc2c(c1O)C[C@@H](C1CCN(CCC(C)NC(=O)c3ccccc3)CC1)O[C@H]2CN (some centres unmarked) [Example 21, dihydrochloride]', 'human dopamine D1 receptor (Homo sapiens, UniProt P21728)', 'Ki', 120),
  ('Cc1ccc2c(c1O)C[C@@H](C1CCN(Cc3ccc(Cl)cc3)CC1)O[C@H]2CN [Example 58, dihydrochloride]', 'human dopamine D1 receptor (Homo sapiens, UniProt P21728)', 'Ki', 52),
  ('Cc1ccc2c(c1O)C[C@@H](C1CCN(C(=O)Nc3cc(C(F)(F)F)ccc3F)CC1)O[C@H]2CN [Example 124, hydrobromide]', 'human dopamine D1 receptor (Homo sapiens, UniProt P21728)', 'Ki', 486),
  ('Cc1ccc2c(c1O)C[C@@H](C1CCN(C(=O)N(c3ccccc3)c3ccccc3)CC1)O[C@H]2CN [Example 130, hydrochloride]', 'human dopamine D1 receptor (Homo sapiens, UniProt P21728)', 'Ki', 156),
  ('Cc1ccc2c(c1O)C[C@@H](C1CCN(Cc3ccc(Cl)c(Cl)c3)CC1)O[C@H]2CN [Example 60, dihydrochloride]', 'human dopamine D1 receptor (Homo sapiens, UniProt P21728)', 'Ki', 11.8),
  ('Cc1ccc2c(c1O)C[C@@H](C1CCN(CCC(C)C)CC1)O[C@H]2CN [Example 41, dihydrochloride]', 'human dopamine D1 receptor (Homo sapiens, UniProt P21728)', 'Ki', 114),
  ('Cc1ccc2c(c1O)C[C@@H](C1CCN(CCc3ccccc3)CC1)O[C@H]2CN [Example 106, dihydrobromide]', 'human dopamine D1 receptor (Homo sapiens, UniProt P21728)', 'Ki', 45),
  ('Cc1ccc2c(c1O)C[C@@H](C1CCN(Cc3cc(C(F)(F)F)ccc3Cl)CC1)O[C@H]2CN [Example 77, dihydrochloride]', 'human dopamine D1 receptor (Homo sapiens, UniProt P21728)', 'Ki', 36),
  ('Cc1ccc(C(=O)NC(C)CCN2CCC([C@@H]3Cc4c(ccc(C)c4O)[C@H](CN)O3)CC2)cc1 (some centres unmarked) [Example 15, dihydrochloride]', 'human dopamine D1 receptor (Homo sapiens, UniProt P21728)', 'Ki', 126);

1: Cc1ccc2c(c1O)C[C@@H](C1CCN(S(=O)(=O)c3ccc(-c4ccccc4)cc3)CC1)O[C@H]2CN [Example 152, hydrochloride]
2: Cc1ccc2c(c1O)C[C@@H](C1CCN(Cc3ccc(Oc4ccccc4)cc3)CC1)O[C@H]2CN [Example 46, dihydrochloride]
3: C=CCN(CC=C)C[C@@H]1O[C@H](C2CCN(Cc3ccc(C(F)(F)F)cc3)CC2)Cc2c1ccc(C)c2O [Example 185]
4: Cc1ccc(CN2CCC([C@@H]3Cc4c(ccc(C)c4O)[C@H](CN)O3)CC2)cc1 [Example 66, dihydrochloride]
Q: With regard to Ki, arrange the entries in ascending order, please. Answer format: list of labels, ordered as asked.
Ans: 2, 4, 1, 3
(2: 49 nM, 4: 75.7 nM, 1: 169 nM, 3: 3100 nM)
